# key: entry, value: pKd
target entity: T1, His-tagged cynomolgus CTLA-4 (CT4-C5227; Acro Biosystems) (cynomolgus, UniProt G7PL88 36-161)
T1 construct: also called soluble cynomolgus CTLA-4; cyno CTLA-4
T1 sequence (G7PL88 entry or part of it limits assumed, form in doubt): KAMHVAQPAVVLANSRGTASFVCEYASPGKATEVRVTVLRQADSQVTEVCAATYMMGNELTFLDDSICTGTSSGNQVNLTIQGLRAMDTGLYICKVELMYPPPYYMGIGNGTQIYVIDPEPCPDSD
protocol text: BLI (Octet), single antigen concentration
A value of pKd is the negative decimal logarithm of a concentration given in moles per litre.

{"binder": "antibody A4 (L4H4) (antibody, V domains shown, also called aCTLA-4.29) VH: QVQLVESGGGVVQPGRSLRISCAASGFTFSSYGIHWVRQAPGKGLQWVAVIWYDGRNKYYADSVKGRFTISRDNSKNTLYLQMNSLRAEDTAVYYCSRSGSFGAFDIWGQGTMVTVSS VL: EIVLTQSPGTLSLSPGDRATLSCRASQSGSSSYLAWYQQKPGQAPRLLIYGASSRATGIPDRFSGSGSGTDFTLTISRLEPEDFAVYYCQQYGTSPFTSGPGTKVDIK", "pKd": 8.92}
{"binder": "antibody A8 (L8H8) (antibody, V domains shown, also called aCTLA-4.1) VH: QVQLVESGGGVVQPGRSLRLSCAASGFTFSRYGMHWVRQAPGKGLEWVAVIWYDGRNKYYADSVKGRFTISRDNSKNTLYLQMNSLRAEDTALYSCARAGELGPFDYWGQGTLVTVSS VL: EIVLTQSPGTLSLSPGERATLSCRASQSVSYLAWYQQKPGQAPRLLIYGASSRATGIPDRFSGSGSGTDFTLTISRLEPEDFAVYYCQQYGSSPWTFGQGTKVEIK", "pKd": 9.00}

Recorded pKd (binder antibody A5 (L5H5) (antibody, V domains shown, also called aCTLA-4.28; CTLA4.A5) VH: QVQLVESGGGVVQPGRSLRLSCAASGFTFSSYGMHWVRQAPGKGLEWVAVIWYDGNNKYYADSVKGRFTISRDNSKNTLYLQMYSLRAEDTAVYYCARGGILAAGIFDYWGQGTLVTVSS VL: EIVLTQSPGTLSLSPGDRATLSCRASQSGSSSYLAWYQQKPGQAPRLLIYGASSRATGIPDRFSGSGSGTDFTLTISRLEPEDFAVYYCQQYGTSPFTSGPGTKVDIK ): 8.66
